# Tested on: VchCAST RNA-guided transposition machinery (E. coli BL21(DE3) host, lacZ target)
# experiment: relative integration efficiency (T-RL orientation) vs wild-type transposon end (log2 (normalized fold change)); transposon end mutated: right end (5 bp flank + 75 bp right end); higher = more efficient transposition
measuredProperty: relative integration efficiency (log2)
Answer using only a numeral; do not append any unit.

Here is how some sequences turned out for relative integration efficiency (log2).
- ACATTTGTTGATACAACCATAAAATGATAATTACACCCATAAATTGATAATTATCACACCCATAAATTGATATTGCCTCTGATAACTTCGTATAGTATACATTATACGAAGTTATTCGCACCGACAC: -2.13
- ACATTTGTTGATACAACCATAAAATGATAATTACACCCATAAATTGATAATTATCACACCCATAAATTGATATTGCCTCCAACCATAAAATGATAATTATGATCATAGTCAGACCAAGCACCGACAC: -0.0389
- ACATTTGTTCATACAACCATAAAATGATAATTCACCCATAAATTGATAATTATCACACCCCAATTTAACTATAACGCTCTGATCATAGTCAGACCAACATTGCTACGACCCGTATTCGCACCGACAC: -2.26

[in] Please state recorded relative integration efficiency (log2) (tested on VchCAST RNA-guided transposition machinery (E. coli BL21(DE3) host, lacZ target)) of ACATTTGTTGATACAACCATAAAATGATAATTACACCCATAAAAACTTAATTATCACACCCATAAATTGATATTGCCTCTGATCATAGTCAGACCAACATTGCTACGACCCGTATTCGCACCGACAC
[out] -0.679

[in] # repeat for ACATTTGTTGATACAACCATTAAATGATAATTCCACCCCTAAATTGATAATTATCACACCCAATTTAACTATAACGCTCTGATCATAGTCAGACCAACATTGCTACGACCCGTATTCGCACCGACAC
[out] -2.75

[in] # repeat for ACATTTGTTGATACAACCATAAAATGATAATTACAACCATAAAATGATAATTATCACAACCATAAAGTGATATTTACTCTGATCATAGTCAGACCAACATTGCTACGACCCGTATTCGCACCGACAC
[out] -0.175

[in] # repeat for ACATTTGTTGATACAACCATAAAATGATAATTACACCCATAAATGGATCATTATCACCCCCAATTTAACTATAACGCTCTGATCATAGTCAGACCAACATTGCTACGACCCGTATTCGCACCGACAC
[out] -1.44

[in] # repeat for ACATTTGTTGAATCAACCATAAAATGATAATTACACCCATAAATTGATAATTATCACACCCATAAATTGATATTGCCTCTGATCATAGTCAGACCAACATTGCTACGACCCGTATTCGCACCGACAC
[out] 0.38
